# Test system: OVCAR-3
# procedure-text: NCI tumour cell line growth inhibition, 48 h
Calls of active or inactive are those of the source. Rule as the data show it: active = GI50 up to about 1.1 µM and inactive = higher.
value-type: GI50

Previously resolved entries follow.
[O-][S+]1Nc2c(Cl)cc(Cl)c3c(Cl)cc(Cl)c(c23)N1 :: 30.6 µM (inactive)
CCCCCCC(=O)C/C(CCC(=O)N(Cc1ccccc1)Cc1ccccc1)=N\Nc1ccc([N+](=O)[O-])cc1[N+](=O)[O-] :: 35.4 µM (inactive)
O=C(O)/C=C\C(=O)Nc1ccccn1 :: > 100 µM (inactive)
O=C(C/C(=N/O)C(F)(F)F)c1cccs1 :: 67.8 µM (inactive)
CC(=O)OC1CC[C@@]2(C)C(=CC[C@@H]3[C@@H]2CC[C@]2(C)Nc4c(cnn4-c4ccc(F)cc4)C[C@@H]32)C1 (some centres not stated) :: > 39.4 µM (inactive)
O=C1CCC(=O)N1CNc1ccc2c(c1)Sc1ccccc1O2 :: 26.5 µM (inactive)

Lab note: compound CC1(C)C(CCO)CC1n1cc(I)c(=O)[nH]c1=O (configuration not stated) tested on OVCAR-3; recorded GI50 was > 100 µM (inactive)

Lab note: compound `Cc1cc2c(SCc3ccccc3Cl)nc(N)nc2nc1C` tested on OVCAR-3; recorded GI50 was > 100 µM (inactive)

Lab note: compound CC(=O)NC(CCCCN(Cc1ccccc1)C(=O)N(C)N=O)C(=O)NCc1ccccc1 (configuration not stated) tested on OVCAR-3; recorded GI50 was > 100 µM (inactive)

Lab note: compound NC(Cc1ccccc1)P(=O)(O)O (configuration not stated) tested on OVCAR-3; recorded GI50 was > 100 µM (inactive)

Lab note: compound COc1cc(C(c2cc3c(cc2O)OCO3)N2CCCC2)cc(OC)c1OC (configuration not stated) tested on OVCAR-3; recorded GI50 was 17.7 µM (inactive)

====

# System: HOP-62
# procedure-text: NCI tumour cell line growth inhibition, 48 h
Active and inactive are the calls of the source. No stated cut-off is given here; in the data, active = GI50 up to about 1.1 µM and inactive = higher.
A correct response names exactly one class from active, inactive

Tell me the recorded outcome of this test for N=C(N)N/N=C(/CC1OC(=O)c2ccccc21)c1ccc2ccccc2c1 (configuration not stated) .
inactive

Tell me the recorded outcome of this test for `N#CC1(C#N)C2(c3ccccc3)OC(c3ccccc3)(c3cc4ccccc4cc32)C1(C#N)C#N` .
inactive

Tell me the recorded outcome of this test for `CCCCc1c(C(=O)OC(C)(C)C)cc(C#Cc2cc(C(=O)OC(C)(C)C)c(CCCC)c(C(=O)OC(C)(C)C)c2)cc1C(=O)OC(C)(C)C` .
inactive

Tell me the recorded outcome of this test for `O=S(=O)(O)c1cc(/N=[N+](\[O-])c2ccc(/N=N/c3ccccc3)cc2S(=O)(=O)O)ccc1/C=C/c1ccc(/N=[N+](\[O-])c2ccc(/N=N/c3ccccc3)cc2S(=O)(=O)O)cc1S(=O)(=O)O` .
inactive

Tell me the recorded outcome of this test for `CC1=CC(=O)/C(=C/n2c(=S)[nH]c3ccccc32)C(=O)O1` .
inactive

Tell me the recorded outcome of this test for O=C(CC(O)(C(F)(F)F)C(F)(F)F)C(CCCl)C(O)(C(F)(F)F)C(F)(F)F (configuration not stated) .
inactive

Tell me the recorded outcome of this test for `N#CCc1nc(O)c2ccccc2n1` .
inactive

Tell me the recorded outcome of this test for `O=c1[nH]c2ccc(Cl)cc2o1` .
inactive

Tell me the recorded outcome of this test for COc1ccc(C2c3cc4c(cc3OC(O)(CO)C2C(=O)O)OCO4)cc1.COc1ccc(C2c3cc4c(cc3OC3(O)COC(=O)C23)OCO4)cc1 (configuration not stated) .
inactive

Tell me the recorded outcome of this test for CO[C@H](C(=O)O[C@H]1C(=O)N2CC[C@@H]3CCC[C@H]1C32C)c1ccccc1 (some centres not stated) .
inactive

Tell me the recorded outcome of this test for `CNCCCNc1c2ccccc2nc2cccc([N+](=O)[O-])c12` .
active

Tell me the recorded outcome of this test for `CCCCCCc1cc2cc(C(=O)Nc3ccc(F)cc3)c(=N)oc2cc1O` .
inactive
